target desc: T1, CD3 epsilon homodimer protein (UniProt P07766 23-126)
T1 construct: also called CD3 (CD3 epsilon)
T1 sequence (P07766 23-126): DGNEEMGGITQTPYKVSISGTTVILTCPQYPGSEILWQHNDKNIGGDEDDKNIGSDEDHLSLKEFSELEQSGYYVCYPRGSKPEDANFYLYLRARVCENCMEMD
procedure details: SPR Biacore T200, CD3e homodimer on chip, vs unaltered GLS3000 antibody
Label scheme for ratio of amounts bound (Z=Y/X): lower than 0.9 is -1, 0.9 and above is 1.

Please review the following examples before continuing.
INPUT: Test whether the binder GLS3000 N28V (antibody, name in Kabat numbering, V domains shown, one-arm IgG as m2) VH: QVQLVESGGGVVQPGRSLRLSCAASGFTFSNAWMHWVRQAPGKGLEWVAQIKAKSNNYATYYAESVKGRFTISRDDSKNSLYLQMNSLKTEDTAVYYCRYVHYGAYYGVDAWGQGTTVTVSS VL: DIVMTQSPLSLPVTPGEPASISCRSSQSLVHSVRNTYLHWYQQKPGQAPRLLIYKVSNRFSGVPDRFSGSGSGTDFTLKISRVEAEDVGVYYCGQGTQVPYTFGQGTKLEIK records ratio of amounts bound (Z=Y/X) of 0.9 or higher.
OUTPUT: -1

INPUT: Test whether the binder GLS3000 R24D (antibody, name in Kabat numbering, V domains shown, one-arm IgG as m2) VH: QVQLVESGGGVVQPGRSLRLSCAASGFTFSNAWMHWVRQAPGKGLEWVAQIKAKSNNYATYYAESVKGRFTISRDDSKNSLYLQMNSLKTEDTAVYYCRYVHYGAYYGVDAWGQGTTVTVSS VL: DIVMTQSPLSLPVTPGEPASISCDSSQSLVHSNRNTYLHWYQQKPGQAPRLLIYKVSNRFSGVPDRFSGSGSGTDFTLKISRVEAEDVGVYYCGQGTQVPYTFGQGTKLEIK records ratio of amounts bound (Z=Y/X) of 0.9 or higher.
OUTPUT: -1

INPUT: Test whether the binder GLS3000 N53T (antibody, name in Kabat numbering, V domains shown, one-arm IgG as m2) VH: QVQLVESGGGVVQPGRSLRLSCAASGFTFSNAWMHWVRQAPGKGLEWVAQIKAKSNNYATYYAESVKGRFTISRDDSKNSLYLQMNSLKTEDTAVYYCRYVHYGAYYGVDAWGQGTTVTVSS VL: DIVMTQSPLSLPVTPGEPASISCRSSQSLVHSNRNTYLHWYQQKPGQAPRLLIYKVSTRFSGVPDRFSGSGSGTDFTLKISRVEAEDVGVYYCGQGTQVPYTFGQGTKLEIK records ratio of amounts bound (Z=Y/X) of 0.9 or higher.
OUTPUT: -1

Next:
INPUT: Test whether the binder GLS3000 T31K (antibody, name in Kabat numbering, V domains shown, one-arm IgG as m2) VH: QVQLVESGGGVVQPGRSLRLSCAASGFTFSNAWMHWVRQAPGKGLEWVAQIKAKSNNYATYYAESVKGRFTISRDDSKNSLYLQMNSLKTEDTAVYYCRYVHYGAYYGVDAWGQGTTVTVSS VL: DIVMTQSPLSLPVTPGEPASISCRSSQSLVHSNRNKYLHWYQQKPGQAPRLLIYKVSNRFSGVPDRFSGSGSGTDFTLKISRVEAEDVGVYYCGQGTQVPYTFGQGTKLEIK records ratio of amounts bound (Z=Y/X) of 0.9 or higher.
OUTPUT: 1

INPUT: Test whether the binder GLS3000 N30I (antibody, name in Kabat numbering, V domains shown, one-arm IgG as m2) VH: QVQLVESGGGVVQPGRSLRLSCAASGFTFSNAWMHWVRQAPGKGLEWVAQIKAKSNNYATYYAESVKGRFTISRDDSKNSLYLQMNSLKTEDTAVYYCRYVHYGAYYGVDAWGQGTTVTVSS VL: DIVMTQSPLSLPVTPGEPASISCRSSQSLVHSNRITYLHWYQQKPGQAPRLLIYKVSNRFSGVPDRFSGSGSGTDFTLKISRVEAEDVGVYYCGQGTQVPYTFGQGTKLEIK records ratio of amounts bound (Z=Y/X) of 0.9 or higher.
OUTPUT: -1

INPUT: Test whether the binder GLS3000 Q93Y (antibody, name in Kabat numbering, V domains shown, one-arm IgG as m2) VH: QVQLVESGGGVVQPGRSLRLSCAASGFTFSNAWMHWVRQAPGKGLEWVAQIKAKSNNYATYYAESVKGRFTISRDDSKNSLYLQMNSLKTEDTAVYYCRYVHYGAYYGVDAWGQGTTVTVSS VL: DIVMTQSPLSLPVTPGEPASISCRSSQSLVHSNRNTYLHWYQQKPGQAPRLLIYKVSNRFSGVPDRFSGSGSGTDFTLKISRVEAEDVGVYYCGQGTYVPYTFGQGTKLEIK records ratio of amounts bound (Z=Y/X) of 0.9 or higher.
OUTPUT: -1
